Data origin, for the record: patent US20250319032A1

- ASSAY OVERVIEW: Nitrite content (ion chromatography; LC-FLD with DAN derivatisation; Griess test) in drug substance, intermediates, reagents, solvents, filters, excipients
- Type: physicochemical
- EXPERIMENTAL CONTEXT: ribociclib succinate drug substance batches at release
Reported values of Nitrite NAT enhanced sample prep. (ppm) for individual entries

- COMPOUND: "CN(C)C(=O)c1cc2cnc(Nc3ccc(N4CCNCC4)cn3)nc2n1C1CCCC1.O=C(O)CCC(=O)O [Batch B695105]"
  MEASURED: "0.3 ppm"
- COMPOUND: "CN(C)C(=O)c1cc2cnc(Nc3ccc(N4CCNCC4)cn3)nc2n1C1CCCC1.O=C(O)CCC(=O)O [Batch B698298]"
  MEASURED: "<0.1 ppm"
- COMPOUND: "CN(C)C(=O)c1cc2cnc(Nc3ccc(N4CCNCC4)cn3)nc2n1C1CCCC1.O=C(O)CCC(=O)O [Batch B709940]"
  MEASURED: "<0.1 ppm"

Ask: Tell me Nitrite NAT enhanced sample prep. (ppm) reported for CN(C)C(=O)c1cc2cnc(Nc3ccc(N4CCNCC4)cn3)nc2n1C1CCCC1.O=C(O)CCC(=O)O [Batch B709051]
Result: <0.1 ppm
